Data origin: patent US20220073643A1

Could you please report measured pEC50 for the items listed next?
Target System: T1, human Claudin18.2 (human)
T1 construct: also called CLDN18.2
Method Summary: cell ELISA, Claudin18.2-expressing HEK293T cells
API: returns pEC50 as number; meaning -log10 of concentration in mol/L.

-- ask Which pEC50 value belongs to 423C10E1 (antibody, V domains shown, mouse hybridoma mAb) VH: DVQLVESGGGLVQPGGSRKLSCVTSGFTFSSFGMHWVRQAPEKGLEWVAFISGGGSPIFYADSVKGRFTVSRDNPKNTLFLQMTGLRSEDTAMYFCARFYFGNSFAYWGQGTLVTVSA VL: DIVMTQSPSSLTVTAGEKVTMNCRSSQSLFNSGNQKNYLTWYQQKPGQSPKLLIYWASTRESGVPVRFTGSGSGTDFTLTISSVQAEDLAVYYCQTSFNYPLTFGPGTKLELK ?
-- reply 8.61

-- ask Which pEC50 value belongs to 217D9G2 (antibody, V domains shown, mouse hybridoma mAb) VH: QAYLQQSGAELVRSGASVKMSCKASGFTFTSYNIHWVKQTPGQGLEWIGYISPGNGGSNYNLNFKDKATLTAATSSTTAYMQISSLTSEDSAVYFCATGRGFAYWGQGTLVTVSA VL: DIVMTQSPSSLTVTPGEKVTMSCRSSQSLFNSGNQKNYLIWYQQKPGQPPKLLIYRASTRDSGVPDRFTGSGSGTDFTLTISNVQAEDLAVYYCQNDYSYPLTFGAGTKLELK ?
-- reply 9.04
